- Assay target: T1, human TF-His (human, UniProt P13726 33-251)
- T1 construct: range 33-251; Recombinant extracellular segment expressed in HEK293-EBNA cells and purified on a nickel column; also called h.TF-His; h; TF-his; not shown: His tag from vector pTT5-His
- Procedure details: BLI (ForteBio Octet), antibody on ProA sensor, TF-His as analyte
Reported values of koff for individual entries
Measured attribute: koff (s⁻¹)

2B12B10-hz1 (antibody, human IgG1, kappa, V domains shown, Humanized IgG1 kappa) VH: EVQLVESGGGLVQPGGSLRLSCAASGFAFSDSGMHWVRQAPGKGLEWVAYISRDSNTIYYADSVKGRFTISRDNAKNSLYLQMNSLRAEDTAVYYCGRRYYGDYFDYWGQGTLVTVSS VL: DIVLTQSPATLSLSPGERATLSCRASQRVTNYLHWYQQKPGQSPRLLIKYASQSISGIPARFSGSGSGTDFTLTISSLEPEDFAVYFCQQSYNWPLTFGQGTKVEIKR : 0.00289
27H8H3-hz1 (antibody, human IgG1, kappa, V domains shown, Humanized IgG1 kappa) VH: QVQLVQSGAEVKKPGASVKVSCKASGYTFTTYWMHWVRQAPGQGLEWMGMIDPSDSYTSYAQKFQGRVTLTVDTSTSTAYMELSSLRSEDTAVYYCTRGSGPGLFAYWGQGTLVTVSS VL: DIQETQSPSSLSASVGDRVTITCRASQGISNYLNWYQQKPGKAPKLLIYHTSRLHSGVPSRFSGSVSGTDFTLTISSLQPEDFATYFCQQGNTLPYTFGQGTKVEIKR : 0.0116
22F11H5-hz1 (antibody, human IgG1, kappa, V domains shown, Humanized IgG1 kappa) VH: QVQLVQSGAEVKQPGASVKVSCKASGYTFTTYWMHWVRQAPGQGLEWMGMIDPSDSYTTYAQKFQGRVTLTVDTSTSTAYMELSSLRSEDTAVYYCARGSGPGLFAYWGQGTLVTVSS VL: DIQETQSPSSLSASVGDRVTITCRASQDIRNYLNWYQQKPGKAPKLLIYHTSRLQSGVPSRFSGSGSGTDYTLTISSLQPEDFATYYCQQGNMPPYTFGQGTKVEIKR : 0.00296
30G11B7-hz1 (antibody, human IgG1, kappa, V domains shown, Humanized IgG1 kappa) VH: EVQLVESGGGLVKPGGSLRLSCAASGFTFSDYGMFWVRQAPGKGLEWVAYISRGSTTIYYADSVKGRFTISRDNAKNSLYLQMNSLRAEDTAVYFCTRRYYGDYFDYWGQGTLVTVSS VL: EIVLTQSPDFQSVTPKEKVTITCRASQSISNYLHWYQQKPDQSPKLLIKYASQSISGVPSRFSGSGSGTDFTLTINSLEAEDAATYFCQQSYNWPLTFGQGTKVEIKR : 0.00506

Recorded values, source patent US20250333541A1.
